Test system: NCI-H522 lung
Experiment: NCI-60 one-dose screen, 48 h (100 = growth as untreated, 0 = no growth, -100 = all killed)
Conditions: 10 µM unless noted
About 83,000 compounds went through this panel and 20% of them were active in at least one assay; those are over-represented in the sample as a whole.
reported property: growth (%)
The reply should contain only the number, in %.

Query string: Report growth, nothing else, for this compound: Cc1nc2ccc(Cl)cn2c1-c1nnc(SCc2ccc([N+](=O)[O-])cc2)o1
Result string: 45.8

Query string: Return reported growth. Input compound: N#Cc1c(-c2cccc([N+](=O)[O-])c2)nc(SCC(=O)c2ccc(Cl)cc2)[nH]c1=O
Result string: 88.8

Query string: Query growth for COc1cc2cc(Oc3cccc(NC(=O)Nc4cc(C(F)(F)F)cc(C(F)(F)F)c4)c3)c(C)nc2cc1OC
Result string: -33.4

Query string: Supply measured growth of O=S(=O)(NCCNc1nccc(-c2c(-c3cccc(F)c3)nc3sccn23)n1)c1ccccc1 in your reply.
Result string: 43.7

Query string: Please report the measured growth for O=C1C=CC(=O)N1c1cccc(Cl)c1
Result string: 69.9

Query string: Output measured growth for this item: CCN(Cc1ccccc1)c1ccc(C=O)cc1
Result string: 100

Query string: Look up growth of Cn1ccnc1C(=O)/C=C/c1ccc(CC(=O)Nc2ccc(F)cc2)cc1 and report it.
Result string: 16.9

Query string: Given Cc1c(C(=O)NCCC(=O)NO)sc2ncnc(Nc3ccc(F)c(Cl)c3)c12 , respond with its growth.
Result string: 95.6

Query string: Determine its reported growth: COc1ccc(-c2cnc3c(-c4cccc5cnccc45)cnn3c2)cc1
Result string: 48.3

Query string: Give the value of growth reported for the following: COc1ccc(C(=O)/C=C/c2cc3ccccc3n3nnnc23)cc1
Result string: 94

Query string: Indicate its recorded growth; the compound in question is Oc1ccc(C(c2ccc(O)cc2)c2ccc(Br)cn2)cc1
Result string: 42.6

Query string: In one line, give reported growth of the entry CCSCC1CC(O)(c2ccccc2)CC(c2ccc(F)cc2)O1 (stereo unspecified) .
Result string: 53.9

Query string: Please report the measured growth for CCNC(=O)Oc1ccc(/C(=C(\C)c2ccccc2)c2ccc(OCCCN(C)C)cc2)cc1
Result string: 86.4

Query string: Recall and state the measured growth for O=C(c1nnc(Nc2ccccc2Br)o1)c1c[nH]c2ccccc12 .
Result string: 98.2

Query string: Read off the recorded growth for ClC1=C(Br)C(Br)(Br)C(=C(Br)Br)C1(Br)Br
Result string: -25

Query string: Consider the compound Cc1ccc(NC(C(=O)c2ccccc2)c2ccccc2)cc1 (stereo unspecified) . State its measured growth.
Result string: 34.4

Query string: Given the compound O=C(NCCNc1nccc(-c2c(-c3cccc(F)c3)nc3sccn23)n1)c1ccc(Cl)cc1 , write its reported growth.
Result string: 68.4

Query string: # return recorded growth for entry OC(c1ccc(F)c(C(F)(F)F)c1)c1cnccc1NC1CCCCC1 (stereo unspecified)
Result string: 67.1

Query string: Look up and state reported growth for C#CCNC(=O)c1cccc2c1cc(C)n2-c1nc2c(c(NCc3ccccc3)n1)CCCC2
Result string: -25.8

Query string: Find the measured growth of COc1ccc2c(c1)oc1c(C)c3c(c(C)c12)C(=O)N(CCN1CCOCC1)C3=O and report it.
Result string: 29.8

Query string: Indicate its recorded growth; the compound in question is Cn1cc(CC2CC(=O)N(c3ccccc3)C2=O)sc1=NC(=O)c1ccccc1 (stereo unspecified)
Result string: 92.8

---

Tested on: NCI/ADR-RES ovarian
Assay: NCI-60 one-dose screen, 48 h (100 = growth as untreated, 0 = no growth, -100 = all killed)
Conditions: 10 µM unless noted
Compounds without any hit were thinned out: in the full panel of roughly 83,000, 20% have a hit.
What growth was measured for each of the following?
Write the answer as a number in %, unit excluded.

Query string: In one line, give reported growth of the entry COc1ccc(CNCCN2C(=O)c3ccc4c5c(ccc(c35)C2=O)C(=O)N(CCNCc2ccc(OC)c(OC)c2OC)C4=O)c(OC)c1OC .
Result string: -3.82

Query string: Please look at this molecule and report its growth: CCCCCN1C=C/C(=C\C(=O)n2ccc3ccccc32)c2ccccc21
Result string: 94.3

Query string: Return the recorded growth value; entry: Cc1ccc(S(=O)(=O)NNC(=O)/C(=C\c2ccc(Cl)cc2)c2nc3ccccc3s2)cc1
Result string: 97.8

Query string: Return value of growth for input CCCCCCCCCCCCCCCC[N+]1(C)CCN(SN2CC[N+](C)(CCCCCCCCCCCCCCCC)CC2)CC1 , no commentary.
Result string: 96.3

Query string: Quote growth reported for N#Cc1c(NC(=O)NCc2ccccc2)sc2c1CCCC2 please.
Result string: 11.1

---

Tested on: 786-0 renal
Assay: NCI-60 one-dose screen, 48 h
Details: 10 µM unless noted
The panel holds about 83,000 compounds, 20% with a hit somewhere; the sample as a whole holds those more often. The source made the active and inactive calls. How the source made its calls: active means growth percent below 10; inactive means the rest.
Allowed answers: active, inactive

Query string: Which outcome was entered for the compound CCCCN1C=CCN(CCCC)C1 in this test?
Result string: inactive

Query string: For this compound, state the assay outcome: COc1cc(/C=N/NC(=O)c2cnn3c2NC(c2ccccc2)C3)ccc1OCc1ccccc1 (stereo unspecified)
Result string: active

Query string: Per the assay record, what outcome was assigned to O=C1Nc2ccccc2/C1=C\c1c(-c2ccc(F)cc2)nc2ccccn12 ?
Result string: inactive

Query string: Field: outcome | Entry: CN(C)CCn1c2ccc(Br)cc2c2nc3ccccc3nc21
Result string: inactive

Query string: Would you mind telling me which call this test gave COc1ccc(NC(N)=NCCCOc2ccc(F)cc2)cc1 ?
Result string: inactive

Query string: # fetch the recorded call for CCOC(=O)Oc1c(OC)cc(C(=O)c2ccc(OC)c(O)c2OC)cc1OC here
Result string: inactive

Query string: Dear all, I need the recorded test outcome for CCOC(=O)CCN(CC(C)C)C(=S)Nc1ccccc1 , thank you.
Result string: inactive

Query string: For this compound, state the assay outcome: CCCCC/C=C/C(C)=C/C1CC(C)C/C=C/CCC(O)C(OC(N)=O)CCC(C)CC(O)C(C)C(=O)O1 (stereo unspecified)
Result string: inactive

Query string: For CCCC/C=N/NC(=S)NCc1ccccc1 , what call appears in the results of this test?
Result string: inactive

Query string: # outcome recorded in this test, key = Cn1cc(-c2nc(-c3c[nH]c4c(Cl)nccc34)cs2)c2cc(Br)ccc21
Result string: inactive

Query string: Can you look up the reported call for COc1cc2oc(-c3cccc(C(=O)Nc4ccc(Cl)cc4)c3)cc(=O)c2c(O)c1OC for me?
Result string: inactive

Query string: Hello, I am checking results. What call was entered for C[C@H]1[C@H](C)CC[C@]2(C(=O)Nc3ccc4ncccc4c3)CC[C@]3(C)C(=CC[C@@H]4[C@@]5(C)CCCNC(C)(C)[C@@H]5CC[C@]43C)[C@H]12 ?
Result string: active

Query string: Given Cc1cnc(C(=O)Nc2nc3ccc(S(=O)(=O)Nc4ccc(C5(C(F)(F)F)CC5)cc4)cc3[nH]2)cn1 , state the outcome it received in this test.
Result string: inactive

Query string: # fetch the recorded call for COc1cc2c(c(OC)c1OC)-c1ccc(NNC(=S)N(Cc3cccc(C[N+](Cc4cccc(CNC56CC7CC(CC(C7)C5)C6)c4)(Cc4cccc(CNC56CC7CC(CC(C7)C5)C6)c4)Cc4cccc(CN(C(=S)NNc5ccc6c(cc5=O)[C@@H](NC(C)=O)CCc5cc(OC)c(OC)c(OC)c5-6)C56CC7CC(CC(C7)C5)C6)c4)c3)C34CC5CC(CC(C5)C3)C4)c(=O)cc1[C@@H](NC(C)=O)CC2 (stereo partly specified) here
Result string: inactive

Query string: Write down the call the test reported for this compound. Item: N=C(N)c1ccc(OCCCCCCCCCCOc2ccc(C(=N)N)cc2)cc1
Result string: active

Query string: For O=Cc1cc2ccccc2nc1Oc1ccc(C(F)(F)F)cc1 , what call appears in the results of this test?
Result string: inactive

Query string: # outcome recorded in this test, key = CN[C@@H](C)C(=O)N[C@H]1CCS[C@H]2CC(C)(C)[C@@H](C(=O)N[C@H]3c4ccccc4C[C@H]3OCC#CC#CCO[C@@H]3Cc4ccccc4[C@@H]3NC(=O)[C@H]3N4C(=O)[C@@H](NC(=O)[C@H](C)NC)CCS[C@H]4CC3(C)C)N2C1=O
Result string: inactive

Query string: Please let me know the test result on file for C#Cc1cccc(NC(=O)c2cccc(NC(=O)CCl)c2)c1 .
Result string: active

Query string: For O=C1Nc2cc(-c3cccc([N+](=O)[O-])c3)ccc2/C1=C/c1ccc[nH]1 , which call appears in the assay record?
Result string: inactive

Query string: Hi team, can someone confirm the assay call for COc1cc(/C=C\C(=O)O)ccc1OCc1ccccc1 ?
Result string: inactive

Query string: # fetch the recorded call for COc1cc(/C=N/NC(=O)c2cnn3c2NC(c2ccccc2)C3)ccc1Oc1ccccc1 (stereo unspecified) here
Result string: inactive

Query string: Please indicate how the test categorized CCN(CC)CCn1c(=O)c2cc(OC)c(OC)cc2c2ccc3cc4c(cc3c21)OCO4 .
Result string: inactive

Query string: For this compound, state the assay outcome: CN1[C@@H]2CC[C@H]1/C(=C\c1ccccc1)C(=O)/C2=C/c1ccccc1
Result string: inactive

Query string: // outcome(item) with item = CCN(CC)CC[n+]1cc2cc(OC)c(OC)cc2c2ccc3cc4c(cc3c21)OCO4
Result string: active

Query string: What was the test verdict on COc1ccc(/C=C2\COc3ccc(-c4ccccc4)cc3C2=O)c(OC)c1 ?
Result string: inactive

Query string: Give the logged outcome of this assay for the following compound: N/C(=N\C(N)=N\c1nc2ccccc2s1)c1cnccn1
Result string: inactive

Query string: What is the recorded call for this compound in the test? COc1cc(NC(C)CCCNC(=O)CCC(=O)NCCCNCCCCCCCCCCNCCCNC(=O)CCC(=O)NCCCC(C)Nc2cc(OC)cc3cccnc23)c2ncccc2c1 (stereo unspecified)
Result string: inactive

Query string: Please indicate how the test categorized O=C(NCCc1ccccc1)Nc1ccc2cc3ccc(NC(=O)NCCc4ccccc4)cc3nc2c1 .
Result string: inactive

Query string: In this assay, the call recorded for COc1ccc(-c2[nH][nH]c(=O)c2-c2nc3ccccc3s2)cc1 was what?
Result string: inactive

Query string: Test call for this compound, please: Cc1cnc(C(=O)Nc2nc3ccc(S(=O)(=O)Nc4ccc(C(C)(C)C)cc4)cc3[nH]2)cn1
Result string: inactive

Query string: Assay outcome for Nc1nc(Nc2ccccc2SSc2ccccc2Nc2nc(N)nc(-c3cccs3)n2)nc(-c2ccsc2)n1 : what was it?
Result string: inactive

Query string: State the result this test recorded for COc1ccc(-c2cnc3c(-c4cccc5ncccc45)cnn3c2)cc1 .
Result string: inactive

Query string: Answer briefly: the call reported for O=C(O)c1ccc(NCc2cn(-c3ccc(C(F)(F)F)cc3)nc2-c2ccc(C(=O)O)cc2)cc1 in this assay.
Result string: inactive

Query string: Check the results log: what was the call for COc1cc(/C(C)=C(\c2ccc(Cl)cc2)c2ccc(OCCN(C)C)cc2)ccc1F ?
Result string: inactive

Query string: Recorded test call requested for CNCCOc1nc2c3cnccc3cc(-c3cc(OC)c(OC)c(OC)c3)c2c2ccncc12
Result string: active

Query string: In this assay, the call recorded for O=C(N/N=C/c1cc2ccccc2n2nnnc12)Nc1ccccc1 was what?
Result string: inactive
